Hey, just so you know, these numbers are from paper PMC8424300.

Test system: BT549, CAL51 and MB-157 breast cancer cell lines
ASSAY_INFO: Viability dose-response in breast cancer cell lines
Assay type: cell-based
CONDITIONS: Homo sapiens, 96 h; range over three breast cancer cell lines; 4 days of treatment
pIC50: −log10 of the molar value.
RECORDED_METRIC: pIC50

Prompt: Need pIC50, item COc1cc(Br)cc2c1OC(c1ccc3c(c1)OCO3)C([N+](=O)[O-])=C2 (stereo not shown)
Completion: 5.51 to 5.62

---

EXPERIMENTAL_SYSTEM: porcine brain tubulin heterodimer (Sus scrofa, UniProt P02550+P02554)
Construct: highly purified porcine brain tubulin heterodimer; purchased Cytoskeleton T240 (kit BK011P); host or cells: porcine brain tissue
Sequence (P02554 whole entry): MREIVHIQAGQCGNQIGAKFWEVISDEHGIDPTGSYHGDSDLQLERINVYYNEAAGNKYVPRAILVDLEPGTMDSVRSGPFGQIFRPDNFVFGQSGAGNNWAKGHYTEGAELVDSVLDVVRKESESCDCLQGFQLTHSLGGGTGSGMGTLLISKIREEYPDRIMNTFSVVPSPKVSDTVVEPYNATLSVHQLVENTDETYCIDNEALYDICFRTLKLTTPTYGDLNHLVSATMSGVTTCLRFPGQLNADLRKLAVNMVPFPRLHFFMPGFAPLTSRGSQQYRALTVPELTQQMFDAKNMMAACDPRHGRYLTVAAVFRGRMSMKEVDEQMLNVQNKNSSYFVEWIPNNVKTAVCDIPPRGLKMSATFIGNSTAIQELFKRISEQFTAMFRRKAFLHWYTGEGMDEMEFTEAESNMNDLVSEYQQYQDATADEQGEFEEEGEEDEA
Sequence (P02550 whole entry): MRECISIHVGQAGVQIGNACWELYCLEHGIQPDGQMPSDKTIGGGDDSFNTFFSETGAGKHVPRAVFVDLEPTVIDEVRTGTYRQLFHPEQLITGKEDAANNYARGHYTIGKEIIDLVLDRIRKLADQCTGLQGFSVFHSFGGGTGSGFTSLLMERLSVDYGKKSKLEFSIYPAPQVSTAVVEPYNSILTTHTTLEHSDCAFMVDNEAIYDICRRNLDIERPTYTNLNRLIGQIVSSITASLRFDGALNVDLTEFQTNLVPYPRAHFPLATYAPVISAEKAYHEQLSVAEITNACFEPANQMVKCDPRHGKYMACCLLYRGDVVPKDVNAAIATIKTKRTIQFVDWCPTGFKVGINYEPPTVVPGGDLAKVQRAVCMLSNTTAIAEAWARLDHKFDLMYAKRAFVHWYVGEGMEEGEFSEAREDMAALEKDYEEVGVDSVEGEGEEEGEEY
ASSAY_INFO: In vitro tubulin polymerization assay
Format: biochemical
CONDITIONS: IC50 of tubulin polymerization, figure 3d; same experiment carried out at a different time
RECORDED_METRIC: IC50 (nM)
Answers are plain numbers, in nM.

Prompt: Requested field: IC50. Item: COc1cc(Br)cc2c1OC(c1ccc3c(c1)OCO3)C([N+](=O)[O-])=C2 (stereo not shown)
Completion: 460
